tested on: LXRb:RXRa (NR concentration 270 nM, RXRa partner concentration 90 nM); test: PBM binding z-score (relative to random genomic background probes); higher = stronger binding; sequences stand for … in GC…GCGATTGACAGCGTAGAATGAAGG
The entries below are paired with their reported PBM binding z-score.

>  <sequence.input>
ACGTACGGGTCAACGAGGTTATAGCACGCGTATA

>  <PBM binding z-score>
4.27

$$$$
>  <sequence.input>
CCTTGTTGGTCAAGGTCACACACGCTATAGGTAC

>  <PBM binding z-score>
3.91

$$$$
>  <sequence.input>
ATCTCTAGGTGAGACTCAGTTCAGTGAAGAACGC

>  <PBM binding z-score>
0.271

$$$$
>  <sequence.input>
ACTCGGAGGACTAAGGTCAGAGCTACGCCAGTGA

>  <PBM binding z-score>
1.49

$$$$
>  <sequence.input>
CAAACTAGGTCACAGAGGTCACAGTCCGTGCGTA

>  <PBM binding z-score>
5.37

$$$$
>  <sequence.input>
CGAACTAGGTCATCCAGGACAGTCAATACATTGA

>  <PBM binding z-score>
2.43

$$$$

====

test system: PPARg homodimer (NR concentration 180 nM); assay: PBM binding z-score (relative to random genomic background probes); higher = stronger binding; sequences stand for … in GC…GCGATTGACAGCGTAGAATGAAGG
Label y when PBM binding z-score is at or above 0.5; otherwise label n.

>  <sequence.input>
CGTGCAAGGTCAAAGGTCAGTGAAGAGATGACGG

>  <target.system>
PPARg homodimer (NR concentration 180 nM)

>  <class>
y

$$$$
>  <sequence.input>
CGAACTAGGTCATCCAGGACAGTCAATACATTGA

>  <target.system>
PPARg homodimer (NR concentration 180 nM)

>  <class>
y

$$$$
>  <sequence.input>
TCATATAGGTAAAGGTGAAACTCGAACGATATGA

>  <target.system>
PPARg homodimer (NR concentration 180 nM)

>  <class>
y

$$$$
>  <sequence.input>
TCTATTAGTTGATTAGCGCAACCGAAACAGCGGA

>  <target.system>
PPARg homodimer (NR concentration 180 nM)

>  <class>
y

$$$$
>  <sequence.input>
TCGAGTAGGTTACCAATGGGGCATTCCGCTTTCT

>  <target.system>
PPARg homodimer (NR concentration 180 nM)

>  <class>
n

$$$$
>  <sequence.input>
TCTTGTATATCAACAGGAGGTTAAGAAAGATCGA

>  <target.system>
PPARg homodimer (NR concentration 180 nM)

>  <class>
y

$$$$
>  <sequence.input>
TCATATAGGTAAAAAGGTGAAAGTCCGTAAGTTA

>  <target.system>
PPARg homodimer (NR concentration 180 nM)

>  <class>
y

$$$$
>  <sequence.input>
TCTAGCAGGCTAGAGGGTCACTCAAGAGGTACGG

>  <target.system>
PPARg homodimer (NR concentration 180 nM)

>  <class>
y

$$$$
>  <sequence.input>
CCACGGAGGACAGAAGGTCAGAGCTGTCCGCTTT

>  <target.system>
PPARg homodimer (NR concentration 180 nM)

>  <class>
y

$$$$
>  <sequence.input>
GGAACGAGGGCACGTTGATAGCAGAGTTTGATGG

>  <target.system>
PPARg homodimer (NR concentration 180 nM)

>  <class>
n

$$$$
>  <sequence.input>
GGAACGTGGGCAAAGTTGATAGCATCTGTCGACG

>  <target.system>
PPARg homodimer (NR concentration 180 nM)

>  <class>
n

$$$$
>  <sequence.input>
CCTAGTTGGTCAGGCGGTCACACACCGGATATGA

>  <target.system>
PPARg homodimer (NR concentration 180 nM)

>  <class>
y

$$$$
>  <sequence.input>
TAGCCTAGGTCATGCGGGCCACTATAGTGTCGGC

>  <target.system>
PPARg homodimer (NR concentration 180 nM)

>  <class>
y

$$$$
>  <sequence.input>
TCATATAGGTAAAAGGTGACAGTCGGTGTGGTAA

>  <target.system>
PPARg homodimer (NR concentration 180 nM)

>  <class>
y

$$$$
>  <sequence.input>
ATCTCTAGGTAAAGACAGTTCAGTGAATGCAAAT

>  <target.system>
PPARg homodimer (NR concentration 180 nM)

>  <class>
y

$$$$
>  <sequence.input>
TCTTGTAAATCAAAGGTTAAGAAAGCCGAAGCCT

>  <target.system>
PPARg homodimer (NR concentration 180 nM)

>  <class>
y

$$$$
>  <sequence.input>
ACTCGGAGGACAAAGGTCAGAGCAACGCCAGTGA

>  <target.system>
PPARg homodimer (NR concentration 180 nM)

>  <class>
y

$$$$
>  <sequence.input>
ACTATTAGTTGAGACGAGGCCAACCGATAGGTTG

>  <target.system>
PPARg homodimer (NR concentration 180 nM)

>  <class>
y

$$$$
>  <sequence.input>
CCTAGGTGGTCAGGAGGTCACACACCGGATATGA

>  <target.system>
PPARg homodimer (NR concentration 180 nM)

>  <class>
y

$$$$
>  <sequence.input>
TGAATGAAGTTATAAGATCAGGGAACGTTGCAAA

>  <target.system>
PPARg homodimer (NR concentration 180 nM)

>  <class>
n

$$$$
>  <sequence.input>
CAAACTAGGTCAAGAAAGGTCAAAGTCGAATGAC

>  <target.system>
PPARg homodimer (NR concentration 180 nM)

>  <class>
y

$$$$
>  <sequence.input>
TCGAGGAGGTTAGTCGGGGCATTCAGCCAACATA

>  <target.system>
PPARg homodimer (NR concentration 180 nM)

>  <class>
y

$$$$
>  <sequence.input>
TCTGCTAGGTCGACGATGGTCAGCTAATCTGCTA

>  <target.system>
PPARg homodimer (NR concentration 180 nM)

>  <class>
n

$$$$
>  <sequence.input>
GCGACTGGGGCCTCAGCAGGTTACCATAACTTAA

>  <target.system>
PPARg homodimer (NR concentration 180 nM)

>  <class>
n

$$$$
>  <sequence.input>
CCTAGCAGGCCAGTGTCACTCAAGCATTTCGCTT

>  <target.system>
PPARg homodimer (NR concentration 180 nM)

>  <class>
n

$$$$
>  <sequence.input>
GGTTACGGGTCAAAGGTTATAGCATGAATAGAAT

>  <target.system>
PPARg homodimer (NR concentration 180 nM)

>  <class>
y

$$$$
>  <sequence.input>
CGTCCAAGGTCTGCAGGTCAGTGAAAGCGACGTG

>  <target.system>
PPARg homodimer (NR concentration 180 nM)

>  <class>
n

$$$$
>  <sequence.input>
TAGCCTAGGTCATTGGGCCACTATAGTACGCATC

>  <target.system>
PPARg homodimer (NR concentration 180 nM)

>  <class>
y

$$$$
>  <sequence.input>
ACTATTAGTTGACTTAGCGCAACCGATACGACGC

>  <target.system>
PPARg homodimer (NR concentration 180 nM)

>  <class>
n

$$$$
>  <sequence.input>
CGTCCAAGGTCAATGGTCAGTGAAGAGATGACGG

>  <target.system>
PPARg homodimer (NR concentration 180 nM)

>  <class>
y

$$$$
>  <sequence.input>
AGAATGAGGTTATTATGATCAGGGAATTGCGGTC

>  <target.system>
PPARg homodimer (NR concentration 180 nM)

>  <class>
y

$$$$
>  <sequence.input>
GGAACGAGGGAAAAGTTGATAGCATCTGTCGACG

>  <target.system>
PPARg homodimer (NR concentration 180 nM)

>  <class>
n

$$$$
>  <sequence.input>
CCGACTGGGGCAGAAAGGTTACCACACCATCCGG

>  <target.system>
PPARg homodimer (NR concentration 180 nM)

>  <class>
y

$$$$
>  <sequence.input>
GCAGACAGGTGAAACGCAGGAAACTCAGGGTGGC

>  <target.system>
PPARg homodimer (NR concentration 180 nM)

>  <class>
n

$$$$
>  <sequence.input>
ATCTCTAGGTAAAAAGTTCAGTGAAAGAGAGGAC

>  <target.system>
PPARg homodimer (NR concentration 180 nM)

>  <class>
y

$$$$
>  <sequence.input>
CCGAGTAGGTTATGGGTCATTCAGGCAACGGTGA

>  <target.system>
PPARg homodimer (NR concentration 180 nM)

>  <class>
y

$$$$
>  <sequence.input>
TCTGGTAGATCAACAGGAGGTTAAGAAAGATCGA

>  <target.system>
PPARg homodimer (NR concentration 180 nM)

>  <class>
n

$$$$
>  <sequence.input>
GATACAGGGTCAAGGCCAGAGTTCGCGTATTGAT

>  <target.system>
PPARg homodimer (NR concentration 180 nM)

>  <class>
y

$$$$
>  <sequence.input>
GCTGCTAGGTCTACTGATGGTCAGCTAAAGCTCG

>  <target.system>
PPARg homodimer (NR concentration 180 nM)

>  <class>
n

$$$$
>  <sequence.input>
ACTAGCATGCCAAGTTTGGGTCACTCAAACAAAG

>  <target.system>
PPARg homodimer (NR concentration 180 nM)

>  <class>
n

$$$$
>  <sequence.input>
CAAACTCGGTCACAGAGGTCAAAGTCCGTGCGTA

>  <target.system>
PPARg homodimer (NR concentration 180 nM)

>  <class>
y

$$$$
>  <sequence.input>
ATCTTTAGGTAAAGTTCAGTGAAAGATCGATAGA

>  <target.system>
PPARg homodimer (NR concentration 180 nM)

>  <class>
y

$$$$
>  <sequence.input>
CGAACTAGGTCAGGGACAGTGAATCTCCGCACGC

>  <target.system>
PPARg homodimer (NR concentration 180 nM)

>  <class>
y

$$$$
>  <sequence.input>
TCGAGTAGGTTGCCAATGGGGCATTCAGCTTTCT

>  <target.system>
PPARg homodimer (NR concentration 180 nM)

>  <class>
n

$$$$
>  <sequence.input>
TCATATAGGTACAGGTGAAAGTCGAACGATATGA

>  <target.system>
PPARg homodimer (NR concentration 180 nM)

>  <class>
y

$$$$
>  <sequence.input>
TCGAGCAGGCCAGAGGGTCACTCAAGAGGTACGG

>  <target.system>
PPARg homodimer (NR concentration 180 nM)

>  <class>
n

$$$$
>  <sequence.input>
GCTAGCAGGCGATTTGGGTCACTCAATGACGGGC

>  <target.system>
PPARg homodimer (NR concentration 180 nM)

>  <class>
n

$$$$
>  <sequence.input>
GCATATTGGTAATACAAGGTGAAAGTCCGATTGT

>  <target.system>
PPARg homodimer (NR concentration 180 nM)

>  <class>
n

$$$$
>  <sequence.input>
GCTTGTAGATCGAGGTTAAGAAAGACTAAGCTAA

>  <target.system>
PPARg homodimer (NR concentration 180 nM)

>  <class>
n

$$$$
>  <sequence.input>
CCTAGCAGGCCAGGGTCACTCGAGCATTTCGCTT

>  <target.system>
PPARg homodimer (NR concentration 180 nM)

>  <class>
y

$$$$
>  <sequence.input>
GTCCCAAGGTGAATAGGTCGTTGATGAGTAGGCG

>  <target.system>
PPARg homodimer (NR concentration 180 nM)

>  <class>
y

$$$$
